Here the recorded Potency is given for each entry.
experiment: qHTS of pediatric cancer cell lines to identify multiple opportunities for drug repurposing: Primary screen for A673 cells (AID 1347092); conditions: A673 Ewing sarcoma viability, CellTiter-Glo ATP luminescence, 48 h; series mostly up to 46 µM; further: potency means the concentration at half of the fitted maximal effect; nearly all actives have a fitted effect of over 45% in size
Records with an inconclusive call do not appear. Active and inactive are the calls of the source. The call rests on the fitted dose curve; in most records, active means well fitted cell-killing curve with a large enough effect; inconclusive means small, poorly fitted or top-dose-only effect; inactive means no such curve, though single readings can be large or run the other way.

Some entries whose results are on file:
Cc1[nH]c2ccccc2c1CCNCc1ccc(C=CC(=O)NO)cc1	148 nM (active)
Nc1ncnc2c1c(-c1cccc(OCc3ccccc3)c1)cn2C1CC(CN2CCCC2)C1 (centres undefined)	18700 nM (active)
CN1CCN(c2ccc3nc(-c4c(N)c5c(F)cccc5[nH]c4=O)[nH]c3c2)CC1	14800 nM (active)
O=C(CCCCCCC(=O)Nc1ccc([C@H]2O[C@@H](CSc3nc(-c4ccccc4)c(-c4ccccc4)o3)C[C@@H](c3ccc(CO)cc3)O2)cc1)NO	4690 nM (active)

The measured Potency associated with COCCOc1ccc2c(c1)ncn2-c1ccc2cccc(N3CCC(N)CC3)c2n1 reads 4690 nM (active)

The measured Potency associated with CC(C)c1cc(-c2n[nH]c(=O)n2-c2ccc3c(ccn3C)c2)c(O)cc1O reads 118 nM (active)

The measured Potency associated with CN1CCN(Cc2ccc(NC(=O)Nc3ccc(Oc4cc(NC(=O)C5CC5)ncn4)cc3)cc2C(F)(F)F)CC1 reads 148 nM (active)

The measured Potency associated with Cc1cc(Nc2nc(N[C@@H](C)c3ccc(F)cc3)c(C#N)cc2F)n[nH]1 reads 1180 nM (active)

----------
assay: Quantitative High-Throughput drug screen in 47 multiple myeloma cell lines against the NCATS MIPE library collection: MM1R_ATCC cell viability assay (AID 1918981); conditions: MM1R multiple myeloma cells, CellTiter-Glo viability, 48 h; series mostly up to 45.8 µM; further: nearly all actives have a fitted effect of over 35% in size
Results filed as inconclusive are left out. Active and inactive are the calls of the source. Calls come from the whole dose curve; as a rule, active = well fitted cell-killing curve with a large enough effect; inconclusive = small, poorly fitted or top-dose-only effect, or effect the other way; inactive = no such curve, though single readings can be large or run the other way.
# output must be one of active, inactive

C=CC(=O)Nc1cc2c(Nc3ccc(F)c(Cl)c3)ncnc2cc1C#CC(C)(C)N1CCN(C)CC1	active
CC(NCc1ccc2c(c1)nc(NC(=O)c1ccc(-c3cn[nH]c3)s1)n2CC(C)(C)O)C(C)(C)C (centres undefined)	active
Cn1cc(-c2[nH]c3cc(NC(=O)[C@H](N)C4CCCCC4)cc4c3c2C=NNC4=O)cn1	active
O=C(CCCCCCC(=O)Nc1ccc([C@H]2O[C@@H](CSc3nc(-c4ccccc4)c(-c4ccccc4)o3)C[C@@H](c3ccc(CO)cc3)O2)cc1)NO	active
Cn1c(=O)n(-c2ccc(C(C)(C)C#N)cc2)c2c3cc(-c4cnc5ccccc5c4)ccc3ncc21	active

What was the test verdict on Nc1ccn([C@@H]2CS[C@H](CO)O2)c(=O)n1 ? inactive

What was the test verdict on O=C(O)C1(Cc2cccc(Nc3nccs3)n2)CCC(Oc2cccc(Cl)c2F)CC1 (centres undefined) ? active

What was the test verdict on CC[C@H](CO)Nc1nc(NCc2ccccc2)c2ncn(C(C)C)c2n1 ? active

What was the test verdict on C1=CCOCc2cc(ccc2OCCN2CCCC2)Nc2nccc(n2)-c2cccc(c2)OCC1 ? active

What was the test verdict on O=c1[nH]c(=O)n(C2CCCO2)cc1F (centres undefined) ? inactive

What was the test verdict on Cc1ccc(C(N)=O)cc1Nc1nccc(-c2cn(C(C)C)c3cnccc23)n1 ? active

What was the test verdict on CC1COC2(CCN(c3nc(=O)c4cc(C(F)(F)F)cc([N+](=O)[O-])c4s3)CC2)O1 (centres undefined) ? inactive

What was the test verdict on Cn1c2ccccc2c2c3c(c4c5ccccc5n(CCC#N)c4c21)CNC3=O ? active

----------
experiment: qHTS of pediatric cancer cell lines to identify multiple opportunities for drug repurposing: Confirmatory screen for A673 cells (AID 1347110); conditions: A673 Ewing sarcoma cell viability; series mostly up to 45.9 µM;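 further: cells exposed to compound for 48 h before the viability read; nearly all actives have a fitted effect of over 65% in size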
Inconclusive results are not listed. The source made the active and inactive calls. The call rests on the fitted dose curve; in most records, active means well fitted cell-killing curve with a large enough effect; inconclusive means small, poorly fitted or top-dose-only effect; inactive means flat fitted curve, though single readings scatter.
# output must be one of class 1 (active), class 0 (inactive)

Some solved entries appear below for comparison.
COc1cc2c(Oc3ccc(-c4cnc(Nc5ccc(F)cc5)n(C)c4=O)cc3F)ccnc2cc1OCCCN1CCOCC1	class 1
CS(=O)(=O)N1CCN(Cc2cc3nc(-c4cccc5[nH]ncc45)nc(N4CCOCC4)c3s2)CC1	class 1
COc1cccc(Nc2c(C(N)=O)cnc3c(C)cc(S(=O)(=O)c4cccc(C(=O)N(C)C)c4)cc23)c1	class 0
COc1cccc2nc(-c3cccs3)nc(NN3C(=O)C=C(C)C3=O)c12	class 1
CCn1cc(-c2ccnc3[nH]c(-c4cccc(CN(C)C)c4)cc23)c(-c2ccc(NC(=O)N(C)C)cc2)n1	class 1

What was the test verdict on Cc1ccc(-c2ncn(-c3ccc(Nc4nccc(-c5cccc(N6CCOCC6)c5)n4)cc3)n2)cn1 ? class 1

What was the test verdict on CC(C)c1cc(C(=O)N2Cc3ccc(CN4CCN(C)CC4)cc3C2)c(O)cc1O ? class 1

What was the test verdict on CC(C)c1cc(-c2n[nH]c(=O)n2-c2ccc3c(ccn3C)c2)c(O)cc1O ? class 1

What was the test verdict on Nc1cc(C(F)(F)F)c(-c2cc(N3CCOCC3)nc(N3CCOCC3)n2)cn1 ? class 1

----------
test: qHTS of pediatric cancer cell lines to identify multiple opportunities for drug repurposing: Confirmatory screen for Saos-2 cells (AID 1347127); conditions: Saos-2 osteosarcoma cell viability; series mostly up to 45.9 µM; further: potency means the concentration at half of the fitted maximal effect; nearly all actives have a fitted effect of over 60% in size
Inconclusive results are not listed. Calls of active or inactive are those of the source. The call rests on the fitted dose curve; in most records, active means well fitted cell-killing curve with a large enough effect; inconclusive means small, poorly fitted or top-dose-only effect, or effect the other way; inactive means no such curve, though single readings can be large or run the other way.
# output must be one of active, inactive

C=CC(=O)Nc1cccc(Oc2nc(Nc3ccc(N4CCN(C)CC4)cc3OC)ncc2Cl)c1	active

What was the test verdict on COc1cc(Nc2ncc(F)c(Nc3ccc4c(n3)N(COP(=O)(O)O)C(=O)C(C)(C)O4)n2)cc(OC)c1OC ? active

What was the test verdict on Cc1[nH]c2ccccc2c1CCNCc1ccc(C=CC(=O)NO)cc1 ? active

What was the test verdict on NCC(=O)Nc1ccc(-n2nc(C(F)(F)F)cc2-c2ccc3c(ccc4ccccc43)c2)cc1 ? active

----------
assay: qHTS Screen of the MIPE 4.0 Collection Against Ewings Sarcoma (EW8) (AID 1259255); conditions: EW8 Ewing sarcoma viability, CellTiter-Glo, 48 h; series mostly up to 45.8 µM; further: nearly all actives have a fitted effect of over 35% in size;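 on viability: 100% = DMSO-treated cells and 0% = medium-only wells without cells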
Inconclusive results are not listed. Activity calls are given as the source filed them. Calls follow the shape of the dose curve; as a rule, active = well fitted inhibition curve with a large enough effect; inconclusive = small, poorly fitted or top-dose-only effect; inactive = no such curve, though single readings can be large or run the other way.
# output must be one of T = active, F = inactive

CNC(=O)c1ccc(-c2cnc3ncc(Cc4ccc5ncccc5c4)n3n2)cc1F	F

What was the test verdict on CN1CCN(c2cc(C(=O)Nc3ccc4c(c3)-c3c(c(C(N)=O)nn3-c3ccc(F)cc3)CC4)c(Cl)cn2)CC1 ? T

What was the test verdict on Cc1cc(C(=O)N2CCN(c3cccc(Cl)c3)CC2)n(-c2ccccc2)n1 ? T

What was the test verdict on Cc1coc2c1C(=O)C(=O)c1c-2ccc2c1CCCC2(C)C ? F

What was the test verdict on N#Cc1c(O)c2c(-c3ccc(-c4ccccc4O)cc3)csc2[nH]c1=O ? T

----------
test: Quantitative High-Throughput drug screen in 47 multiple myeloma cell lines against the NCATS MIPE library collection: ARD_JJKsccE7 cell viability assay (AID 1918929;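 on viability: 100% = DMSO-only wells and 0% = media-only wells without cells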); settings: ARD myeloma cell line viability, CellTiter-Glo, 48 h; series mostly up to 45.8 µM
Records with an inconclusive call do not appear. Activity calls are given as the source filed them. The call rests on the fitted dose curve; in most records, active means well fitted cell-killing curve with a large enough effect; inconclusive means small, poorly fitted or top-dose-only effect, or effect the other way; inactive means no such curve, though single readings can be large or run the other way.
# output must be one of active, inactive

What was the test verdict on Nc1ccc(S(=O)(=O)Nc2ncccn2)cc1 ? inactive

What was the test verdict on COc1ccc(-c2cc3c(C)nc(N)nc3n(C3CCC(OCCO)CC3)c2=O)cn1 (stereo not drawn) ? active

What was the test verdict on COc1cc2ncn(-c3cc(OCc4ccccc4C(F)(F)F)c(C(N)=O)s3)c2cc1OC ? active

What was the test verdict on Cc1ccc(C(=O)Nc2ccc(CN3CCN(C)CC3)c(C(F)(F)F)c2)cc1C#Cc1cnc2cccnn12 ? active

What was the test verdict on O=C(c1ccc(Nc2nccc(-c3cc4ccccc4s3)n2)cc1)N1CCC(N2CCCC2)CC1 ? active

What was the test verdict on O=C(Nc1cn[nH]c1-c1nc2ccc(CN3CCOCC3)cc2[nH]1)NC1CC1 ? active

----------
Test system: Tov112D
Test: Primary qHTS to identify gynecologic anti-cancer compounds using libraries of approved drugs and bioactive compounds (AID 1345084); further: nearly all actives have a fitted effect of over 55% in size
Conditions: Gynecologic cancer cell panel viability, ATPlite luminescence, 48 h; series mostly up to 57.5 µM
Source text: National Center for Advancing Translational Sciences [NCATS] Assay Overview: Chemotherapeutic drug responses vary from cancer to cancer and from patient to patient. […] ATPlite is a luminescence based assay reliant on the conversion of a luciferase substrate to light in the presence of ATP. As a cytotoxic compound will suppress growth and decrease the number of cells, the concentration of ATP will decrease, and less light signal will be detected in the well. […]
Results filed as inconclusive are left out. Activity calls are given as the source filed them. The call rests on the fitted dose curve; in most records, active means well fitted cell-killing curve with a large enough effect; inconclusive means small, poorly fitted or top-dose-only effect, or effect the other way; inactive means flat fitted curve, though single readings scatter.
# output must be one of yes for active, no for inactive

Some solved entries appear below for comparison.
CN1CCN(Cc2ccc(NC(=O)Nc3ccc(Oc4cc(NC(=O)C5CC5)ncn4)cc3)cc2C(F)(F)F)CC1	yes
Cn1c(CNc2ccc(C(=N)N)cc2)nc2cc(C(=O)N(CCC(=O)O)c3ccccn3)ccc21	no

What was the test verdict on C=CC(=O)Nc1cc2c(Nc3ccc(F)c(Cl)c3)ncnc2cc1OCCCN1CCOCC1 ? no

What was the test verdict on CN(C)CC(C)(C)CNc1nn2c(-c3ccccc3)nnc2cc1C1CCC1 ? no

What was the test verdict on C=CCn1c(=O)c2cnc(Nc3ccc(N4CCN(C)CC4)cc3)nc2n1-c1cccc(C(C)(C)O)n1 ? yes

What was the test verdict on CC(C)CC(=O)Nc1n[nH]c2c1CN(C(=O)C1CCN(C)CC1)C2(C)C ? yes

What was the test verdict on Cc1ccc(NC(=O)C2(c3ccc4c(c3)OC(F)(F)O4)CC2)nc1-c1cccc(C(=O)O)c1 ? no

What was the test verdict on O=C(O)Cn1nnc(-c2cc(N3CCC(Oc4cc(F)ccc4Br)CC3)no2)n1 ? no

What was the test verdict on Nc1nccc(Oc2ccc(NC(=O)c3c[nH]cc(-c4ccc(F)cc4)c3=O)cc2F)c1Cl ? no
